# ASSAY_EXPLANATION: Plasma pharmacokinetics of curcumin and THC during and after intravenous infusion of liposomal curcumin
# Type: in vivo, Beagle dogs
# CONDITION_INFO: both sexes, Beagle, dog, in vivo, 10 mg/kg, 1.25 mg/kg/hr; 30 min; mean±SE; read-out: [Plasma]
PARAMETER: concentration at 30 min (ng/mL)
Express your answer in ng/mL, writing the number without its unit.

concentration at 30 min lookup needed for COc1cc(CCC(=O)CC(=O)CCc2ccc(O)c(OC)c2)ccc1O [THC, tetrahydrocurcumin] , thanks.
63

====

# ASSAY_EXPLANATION: Tissue distribution of curcumin and THC at necropsy 15 minutes post-infusion
# Set-up: species or system Beagle dogs
# CONDITION_INFO: both sexes, beagle, dog, in vivo, 10 mg/kg, 8 hour infusion; No H3PO4; read-out: Tissue level, Brain Stem
PARAMETER: concentration at 15 min
For clarity, give the value followed by its unit.

concentration at 15 min lookup needed for COc1cc(CCC(=O)CC(=O)CCc2ccc(O)c(OC)c2)ccc1O [THC, tetrahydrocurcumin] , thanks.
0.83 ng/g

====

# ASSAY_EXPLANATION: in vivo
# Set-up: species or system Beagle dogs
# CONDITION_INFO: both sexes, beagle, dog, in vivo, Kp [tissue]/[plasma], Striatum
PARAMETER: Kp at 8 h
The reply should be a number, written without any unit.

Kp at 8 h lookup needed for COc1cc(/C=C/C(=O)CC(=O)/C=C/c2ccc(O)c(OC)c2)ccc1O [Curcumin, reference compound] , thanks.
0.0329

====

# ASSAY_EXPLANATION: Tissue distribution of curcumin and THC at necropsy 15 minutes post-infusion
# Set-up: species or system Beagle dogs
# CONDITION_INFO: both sexes, beagle, dog, in vivo, 10 mg/kg, 2 hr infusion; H3PO4 stabilized; read-out: Kp [tissue]/[plasma], Brain Stem
PARAMETER: Kp at 2 h
The reply should be a number, written without any unit.

Kp at 2 h lookup needed for COc1cc(CCC(=O)CC(=O)CCc2ccc(O)c(OC)c2)ccc1O [THC, tetrahydrocurcumin] , thanks.
0.0037

====

# ASSAY_EXPLANATION: Plasma pharmacokinetics of curcumin and THC during and after intravenous infusion of liposomal curcumin
# Assay type: in vivo, Beagle dogs
# CONDITION_INFO: both sexes, Beagle, dog, in vivo, 10 mg/kg, 5 mg/kg/hr; 90 min; mean±SE; read-out: [Plasma]
PARAMETER: concentration at 90 min

concentration at 90 min lookup needed for COc1cc(CCC(=O)CC(=O)CCc2ccc(O)c(OC)c2)ccc1O [THC, tetrahydrocurcumin] , thanks.
891 ng/mL

====

# ASSAY_EXPLANATION: Tissue distribution of curcumin and THC at necropsy 15 minutes post-infusion
# Design: species or system Beagle dogs
# CONDITION_INFO: both sexes, beagle, dog, in vivo, 10 mg/kg, Eight hour infusion; H3PO4 stabilized; read-out: Average tissue concentration, Liver
# Experimental: The test article will be administered to 8 Beagle dogs by intravenous infusion over two hours (Part A) or eight hours (Part B) as shown in Table 6. Multiple samples of tissue weighing approximately 1 gram were removed and snap frozen in the presence or absence of phosphoric acid (H3PO4). For all tissue samples, the levels of curcumin and THC were determined using a method developed by the Bioanalytical Department at Nucro-Technics. […]
PARAMETER: concentration at 15 min (ng/g)
Express your answer in ng/g, writing the number without its unit.

concentration at 15 min lookup needed for COc1cc(CCC(=O)CC(=O)CCc2ccc(O)c(OC)c2)ccc1O [THC, tetrahydrocurcumin] , thanks.
2.24

// provenance: patent US9170257B2
